Tested on: Mycolicibacterium smegmatis
Test: Antimicrobial activity against Mycobacterium smegmatis by agar dilution method
Format: functional
# MIC values compiled below
Write the number in µM without appending the unit.

In the examples that follow, each entry is paired with its recorded MIC.
COMPOUND | TARGET OR TEST SYSTEM | MEASURED QUANTITY | NUMERIC READOUT
O=C(O)c1cn(-c2ccc(F)cc2)c2nc(N3CCC(N4CCCCC4)CC3)c([N+](=O)[O-])cc2c1=O | Mycolicibacterium smegmatis | MIC | 25.2
O=C(O)c1cn(C2CC2)c2nc(N3CCC(O)(c4ccc(Cl)cc4)CC3)c([N+](=O)[O-])cc2c1=O | Mycolicibacterium smegmatis | MIC | 25.8
O=C(O)c1cn(C2CC2)c2nc(N3CCC(n4c(=O)[nH]c5cc(Cl)ccc54)CC3)c([N+](=O)[O-])cc2c1=O | Mycolicibacterium smegmatis | MIC | 23.8

Okay, now this compound:
Enquiry: // returns reported MIC for input O=C(O)c1cn(-c2ccc(F)cc2)c2nc(N3CCN(C(=O)C4COc5ccccc5O4)CC3)c([N+](=O)[O-])cc2c1=O (centres undefined)
Return: 21.7

====

Tested on: Mycobacterium tuberculosis
Assay: Antimycobacterial activity against Mycobacterium tuberculosis H37Rv by agar dilution method
Type: functional
MEASURED QUANTITY: MIC (µM)
Write the number in µM without appending the unit.

COMPOUND | NUMERIC READOUT
O=C(O)c1cn(C2CC2)c2nc(N3CCSCC3)c([N+](=O)[O-])cc2c1=O | 8.32
O=C(O)c1cn(-c2ccc(F)cc2)c2nc(N3CCN(C(=O)C4COc5ccccc5O4)CC3)c([N+](=O)[O-])cc2c1=O (stereo not drawn) | 10.9
O=C(O)c1cn(-c2ccc(F)cc2)c2nc(N3CCC(O)(c4ccc(Cl)cc4)CC3)c([N+](=O)[O-])cc2c1=O | 2.89
COc1c(N2CCNC(C)C2)c(F)cc2c(=O)c(C(=O)O)cn(C3CC3)c12 (stereo not drawn) | 1.04
O=C(O)c1cn(-c2ccc(F)cc2)c2nc(N3CCN(C(=O)c4ccco4)CC3)c([N+](=O)[O-])cc2c1=O | 3.07
NNC(=O)c1ccncc1 | 0.36

Enquiry: // returns reported MIC for input CC(C)(C)NC(=O)C1c2ccccc2CCN1c1nc2c(cc1[N+](=O)[O-])c(=O)c(C(=O)O)cn2-c1ccc(F)cc1 (stereo not drawn)
Return: 2.79

Enquiry: // returns reported MIC for input CC1CN(c2nc3c(cc2[N+](=O)[O-])c(=O)c(C(=O)O)cn3C2CC2)CC(C)O1 (stereo not drawn)
Return: 4.02

====

Tested on: Mycolicibacterium smegmatis
Experiment: Antimicrobial activity against Mycobacterium smegmatis by agar dilution method
Type: functional
MEASURED QUANTITY: log10(MIC) (log10 of the value in µM)
Scale type: logarithmic (base 10). Underlying MIC unit: µM.

In the examples that follow, each entry is paired with its recorded log10(MIC).
COMPOUND | log10(MIC)
COc1ccc(CC2C3=C(CCCC3)CCN2c2nc3c(cc2[N+](=O)[O-])c(=O)c(C(=O)O)cn3C(C)(C)C)cc1 (stereo not drawn) | 1.06
CC(C)(C)NC(=O)C1c2ccccc2CCN1c1nc2c(cc1[N+](=O)[O-])c(=O)c(C(=O)O)cn2C(C)(C)C (stereo not drawn) | 0.78
CC(C)(C)n1cc(C(=O)O)c(=O)c2cc([N+](=O)[O-])c(N3CCC4(CC3)OCCO4)nc21 | 0.56

Enquiry: // returns reported log10(MIC) for input O=C(O)c1cn(C2CC2)c2nc(N3CCC(N4CCCCC4)CC3)c([N+](=O)[O-])cc2c1=O
Return: 1.45

Enquiry: // returns reported log10(MIC) for input CC(C)(C)NC(=O)C1c2ccccc2CCN1c1nc2c(cc1[N+](=O)[O-])c(=O)c(C(=O)O)cn2-c1ccc(F)cc1 (stereo not drawn)
Return: 1.05

Enquiry: // returns reported log10(MIC) for input O=C(O)c1cn(-c2ccc(F)cc2)c2nc(N3CCN(C(=O)c4ccco4)CC3)c([N+](=O)[O-])cc2c1=O
Return: 1.39

Enquiry: // returns reported log10(MIC) for input CCN(CC)C(=O)C1CCCN(c2nc3c(cc2[N+](=O)[O-])c(=O)c(C(=O)O)cn3C2CC2)C1 (stereo not drawn)
Return: 2.04

Enquiry: // returns reported log10(MIC) for input NNC(=O)c1ccncc1 [ISONIAZID]
Return: 1.66
